Attribute: DC50
Biological target: Protein cereblon/Estrogen receptor (Homo sapiens, UniProt P03372+Q96SW2)
Sequence (P03372 whole entry): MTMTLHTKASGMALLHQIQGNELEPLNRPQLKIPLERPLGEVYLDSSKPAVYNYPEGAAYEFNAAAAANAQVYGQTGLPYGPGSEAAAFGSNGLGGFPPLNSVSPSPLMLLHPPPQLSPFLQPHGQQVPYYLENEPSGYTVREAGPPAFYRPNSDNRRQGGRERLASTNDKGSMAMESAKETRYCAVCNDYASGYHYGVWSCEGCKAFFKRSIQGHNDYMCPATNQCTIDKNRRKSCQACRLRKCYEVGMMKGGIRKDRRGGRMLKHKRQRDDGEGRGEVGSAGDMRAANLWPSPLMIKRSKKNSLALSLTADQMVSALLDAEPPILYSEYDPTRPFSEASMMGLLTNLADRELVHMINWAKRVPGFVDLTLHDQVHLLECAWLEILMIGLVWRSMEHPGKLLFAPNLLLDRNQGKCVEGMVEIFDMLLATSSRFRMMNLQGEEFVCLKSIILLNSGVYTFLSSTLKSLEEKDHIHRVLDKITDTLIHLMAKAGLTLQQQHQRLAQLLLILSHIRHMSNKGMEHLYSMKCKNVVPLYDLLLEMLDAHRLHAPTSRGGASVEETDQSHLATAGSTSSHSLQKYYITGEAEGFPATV
Sequence (Q96SW2 whole entry): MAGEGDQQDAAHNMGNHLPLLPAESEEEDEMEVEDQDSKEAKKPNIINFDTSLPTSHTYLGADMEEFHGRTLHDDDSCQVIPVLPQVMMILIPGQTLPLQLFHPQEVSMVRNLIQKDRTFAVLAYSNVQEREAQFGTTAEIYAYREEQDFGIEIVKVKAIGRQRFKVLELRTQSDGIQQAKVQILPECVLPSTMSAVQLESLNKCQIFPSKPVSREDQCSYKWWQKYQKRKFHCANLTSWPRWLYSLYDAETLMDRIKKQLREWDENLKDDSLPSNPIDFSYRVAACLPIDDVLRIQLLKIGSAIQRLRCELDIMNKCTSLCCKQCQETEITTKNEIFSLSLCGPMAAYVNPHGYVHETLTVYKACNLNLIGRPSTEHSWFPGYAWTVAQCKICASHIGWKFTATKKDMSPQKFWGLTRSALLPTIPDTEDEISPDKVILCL
Assay: Protac activity at human ERalpha in human MCF7 cells assessed as protein degradation incubated for 12 hrs by ICW blot assay
Format: cell-based

Use the examples below as a reference point.
Molecule	DC50
O=C1CCC(N2C(=O)c3cc4c(cc3C2=O)CN(C(=O)CN2CCC3(CC2)CCN(c2ccc([C@@H]5c6ccc(O)cc6CC[C@@H]5c5ccccc5)cc2)CC3)C4)C(=O)N1 (stereo partly drawn)	> 1000 nM
O=C1CCC(N2C(=O)c3cc4c(cc3C2=O)CN(CC(=O)N2CC3(CCN(c5ccc([C@@H]6c7ccc(O)cc7CC[C@@H]6c6ccccc6)cc5)CC3)C2)C4)C(=O)N1 (stereo partly drawn)	2.8 nM

Measured on Protein cereblon/Estrogen receptor (Homo sapiens, UniProt P03372+Q96SW2), O=C1CCC(N2C(=O)c3cc4c(cc3C2=O)CN(C2CCN(c3ccc([C@@H]5c6ccc(O)cc6CC[C@@H]5c5ccccc5)cc3)CC2)C4)C(=O)N1 (stereo partly drawn) has a documented DC50 of > 1000 nM

====

Target: Protein cereblon/Estrogen receptor (Homo sapiens, UniProt P03372+Q96SW2)
Experiment: Protac activity at human ERalpha in human MCF7 cells assessed as protein degradation incubated for 12 hrs by ICW blot assay
Format: cell-based
# DC50 values compiled below
Please give a number only; it is taken to be in nM.

Below, 3 compounds whose answers are already recorded.
Compound	Result value
O=C1CCC(N2C(=O)c3cc4c(cc3C2=O)CN(CCCCCCC2CCN(c3ccc([C@@H]5c6ccc(O)cc6CC[C@@H]5c5ccccc5)cc3)CC2)C4)C(=O)N1 (stereo partly drawn)	129
O=C1CCC(N2C(=O)c3cc4c(cc3C2=O)CN(CC2CCN(C(=O)C3CCN(c5ccc([C@@H]6c7ccc(O)cc7CC[C@@H]6c6ccccc6)cc5)CC3)CC2)C4)C(=O)N1 (stereo partly drawn)	13
O=C1CCC(N2C(=O)c3cc4c(cc3C2=O)CN(CC(=O)N2CC3(CCN(c5ccc([C@@H]6c7ccc(O)cc7CC[C@@H]6c6ccccc6)cc5)C3)C2)C4)C(=O)N1 (stereo partly drawn)	4

Reported Protein cereblon/Estrogen receptor (Homo sapiens, UniProt P03372+Q96SW2) DC50 for item C[C@@H]1Cc2c(ccc3[nH]ncc23)[C@@H](c2c(F)cc(N3CCC4(CCN(C(=O)CN5Cc6cc7c(cc6C5)C(=O)N(C5CCC(=O)NC5=O)C7=O)CC4)CC3)cc2F)N1CC(F)(F)F (stereo partly drawn) was 2

// returns DC50 for O=C1CCC(N2C(=O)c3cc4c(cc3C2=O)CN(CC2CCN(CC3CCN(c5ccc([C@@H]6c7ccc(O)cc7CC[C@@H]6c6ccccc6)cc5)CC3)CC2)C4)C(=O)N1 (stereo partly drawn) with Protein cereblon/Estrogen receptor (Homo sapiens, UniProt P03372+Q96SW2); value = 4.3

Tested on Protein cereblon/Estrogen receptor (Homo sapiens, UniProt P03372+Q96SW2), the item C[C@@H]1Cc2c([nH]c3ccccc23)[C@@H](c2c(F)cc(N3CCC4(CCN(C(=O)CN5Cc6cc7c(cc6C5)C(=O)N(C5CCC(=O)NC5=O)C7=O)CC4)CC3)cc2F)N1CC(C)(C)F (stereo partly drawn) showed DC50 equal to 0.8

The recorded DC50 with Protein cereblon/Estrogen receptor (Homo sapiens, UniProt P03372+Q96SW2) for O=C1CCC(N2C(=O)c3cc4c(cc3C2=O)CN(CCCCCC2CCN(c3ccc([C@@H]5c6ccc(O)cc6CC[C@@H]5c5ccccc5)cc3)CC2)C4)C(=O)N1 (stereo partly drawn) was 31

====

Experiment: AUC in Sprague-Dawley rat at 3 mg/kg, po and measured upto 24 hrs by LC-MS/MS analysis
Type: ADME, organism-based
Design: dose 3 mg/kg, time < 24 hrs, route po
Settings: Sprague-Dawley, in vivo
Threshold check on AUC at 24 h: at or above 600 ng·h/mL gives fulfilled, strictly below gives not fulfilled.

Ask | Reported AUC at 24 h at or above 600 ng·h/mL? C[C@@H]1Cc2c(ccc3[nH]ncc23)[C@@H](c2c(F)cc(N3CCC4(CCN(C(=O)CN5Cc6cc7c(cc6C5)C(=O)N(C5CCC(=O)NC5=O)C7=O)CC4)CC3)cc2F)N1CC(F)F (stereo not given in full)
Reply | fulfilled

Ask | Given the entry C[C@@H]1Cc2c(ccc3[nH]ncc23)[C@@H](c2ccc(N3CCC4(CCN(C(=O)CN5Cc6cc7c(cc6C5)C(=O)N(C5CCC(=O)NC5=O)C7=O)CC4)CC3)cn2)N1CC(F)(F)F (stereo not given in full) , answer whether its AUC at 24 h meets or surpasses 600 ng·h/mL.
Reply | not fulfilled

Ask | Check if AUC at 24 h >= 600 ng·h/mL (inclusive). Item: O=C1CCC(N2C(=O)c3cc4c(cc3C2=O)CN(CC(=O)N2CCC3(CC2)CCN(c2ccc([C@@H]5c6ccc(O)cc6CC[C@@H]5c5ccccc5)cc2)CC3)C4)C(=O)N1 (stereo not given in full)
Reply | not fulfilled

Ask | Does AUC at 24 h meet or surpass 600 ng·h/mL for CN1Cc2cc3c(cc2C1)C(=O)N(C1CCC(=O)NC1=O)C3=O (stereo not given) ?
Reply | fulfilled

Ask | Decide: is the reported value of AUC at 24 h for O=C1CCC(N2C(=O)c3cc4c(cc3C2=O)CN(C2CCN(CC3CCN(c5ccc([C@@H]6c7ccc(O)cc7CC[C@@H]6c6ccccc6)cc5)CC3)CC2)C4)C(=O)N1 (stereo not given in full) equal to or greater than 600 ng·h/mL?
Reply | not fulfilled
